These entries and their values trace back to PubChem BioAssay (NCATS).

# Test system: CP238
# Experiment: qHTS profiling for inhibitors of Plasmodium falciparum proliferation (AID 504749); also: nearly all actives have a fitted effect of over 60% in size
# Test Settings: P. falciparum in erythrocytes, SYBR Green DNA, 72 h; series mostly up to 28.7 µM
Results filed as inconclusive are left out. The source made the active and inactive calls. Calls follow the shape of the dose curve; as a rule, active = well fitted inhibition curve with a large enough effect; inconclusive = small, poorly fitted or top-dose-only effect; inactive = flat fitted curve, though single readings scatter.
Pick one: Yes for active, No for inactive

Problem: Any idea what this test logged for "Oc1c(Cl)cc(Cl)cc1Sc1cc(Cl)cc(Cl)c1O" ?
Result: No

Problem: Any idea what this test logged for "CCCCOc1cc(C(=O)NCCN(CC)CC)c2ccccc2n1" ?
Result: No

Problem: Any idea what this test logged for "O=C(O)c1cc2cc(Cc3cccnc3)ccc2o1" ?
Result: No

Problem: Any idea what this test logged for CCCCCCCCCCOCC(O)CN (centres undefined) ?
Result: No

Problem: Any idea what this test logged for "C#C[C@]1(O)CC[C@H]2[C@@H]3CCc4cc(OC5CCCC5)ccc4[C@H]3CC[C@@]21C" ?
Result: No

Problem: Any idea what this test logged for "N[C@H](CO)C(=O)O" ?
Result: No

---

# Experiment: qHTS of pediatric cancer cell lines to identify multiple opportunities for drug repurposing: Primary screen for OHS-50 cells (AID 1347103); also: nearly all actives have a fitted effect of over 40% in size
# Test Settings: OHS-50 osteosarcoma viability, CellTiter-Glo luminescence, 48 h; series mostly up to 57.3 µM
# Procedure: Drug repurposing or repositioning has been offered as a strategy for drug development in oncology programs. […] [1] Shen, M et al. Quantitative high-throughput phenotypic screening of pediatric cancer cell lines identifies multiple opportunities for drug repurposing. […] Cells were assayed in growth media at a density of 500-1,000 cells/well. […] After a 15 min incubation at room temperature, samples were analyzed for luminescence intensity using a ViewLux High-throughput CCD imager equipped with clear filters.
Results filed as inconclusive are left out. Active and inactive are the calls of the source. Calls follow the shape of the dose curve; as a rule, active = well fitted cell-killing curve with a large enough effect; inconclusive = small, poorly fitted or top-dose-only effect; inactive = no such curve, though single readings can be large or run the other way.
Pick one: active, inactive

For orientation, consider the following solved cases.
Problem: Any idea what this test logged for "CC[C@@H](CO)NCCN[C@@H](CC)CO" ?
Result: inactive

Problem: Any idea what this test logged for "CC(C)(C)CC(C)(C)c1ccc(O)c(Cc2ccc(Cl)cc2Cl)c1" ?
Result: active

Problem: Any idea what this test logged for "COc1cc(OC)cc(OC)c1" ?
Result: inactive

Problem: Any idea what this test logged for CCOC(=O)OC(C)OC1=C(C(=O)Nc2ccccn2)N(C)S(=O)(=O)c2ccccc21 (stereo not drawn) ?
Result: inactive

Problem: Any idea what this test logged for "Nc1ccc(C(=O)Nc2ccccc2N)cc1" ?
Result: active

Problem: Any idea what this test logged for "OC[C@@H](O)[C@@H](O[C@@H]1O[C@H](CO)[C@H](O)[C@H](O)[C@H]1O)[C@H](O)[C@@H](O)CO" ?
Result: inactive

Problem: Any idea what this test logged for "Cc1c(N(C)CS(=O)(=O)O)c(=O)n(-c2ccccc2)n1C" ?
Result: inactive

Problem: Any idea what this test logged for "CN(C/C=C/c1ccccc1)Cc1cccc2ccccc12" ?
Result: active

Problem: Any idea what this test logged for "CC(=O)OCC(=O)[C@@]1(OC(C)=O)[C@@H](C)C[C@H]2[C@@H]3C[C@H](F)C4=CC(=O)C=C[C@]4(C)[C@@]3(F)[C@@H](O)C[C@@]21C" ?
Result: inactive

Problem: Any idea what this test logged for "OC[C@H]1O[C@@H](n2cnc3c(=S)nc[nH]c32)[C@H](O)[C@@H]1O" ?
Result: active

Next:
Problem: Any idea what this test logged for "C[C@H](O)C(=O)Nc1c(I)c(C(=O)NC(CO)CO)c(I)c(C(=O)NC(CO)CO)c1I" ?
Result: inactive
